Would you mind telling me the reported inhibition of each entry?
molecular target: Inhibitor of nuclear factor kappa-B kinase subunit beta (Homo sapiens); assay: Inhibition of full length human GST-tagged IKK2 expressed in baculovirus expression system at 10 uM by Z'-LYTE assay
Numbers only, in %.

CNc1nccn2c(-c3ccc(OC)c(OC)c3)cnc12: -1
CNc1nccn2c(-c3ccc(O)c(O)c3)cnc12: 18
CN(C)c1nc2ccccc2n2nccc12: 17
CNc1nccn2c(C)cnc12: -4
CNc1nc2ccc(C)cc2n2nccc12: 19

Could you now consider this next compound?
What does the data say about its inhibition? Entry: "CNc1nc2cc(C)ccc2n2ncc(Br)c12"
7

---

Target: Inhibitor of nuclear factor kappa-B kinase subunit alpha (Homo sapiens)
Sequence (whole entry): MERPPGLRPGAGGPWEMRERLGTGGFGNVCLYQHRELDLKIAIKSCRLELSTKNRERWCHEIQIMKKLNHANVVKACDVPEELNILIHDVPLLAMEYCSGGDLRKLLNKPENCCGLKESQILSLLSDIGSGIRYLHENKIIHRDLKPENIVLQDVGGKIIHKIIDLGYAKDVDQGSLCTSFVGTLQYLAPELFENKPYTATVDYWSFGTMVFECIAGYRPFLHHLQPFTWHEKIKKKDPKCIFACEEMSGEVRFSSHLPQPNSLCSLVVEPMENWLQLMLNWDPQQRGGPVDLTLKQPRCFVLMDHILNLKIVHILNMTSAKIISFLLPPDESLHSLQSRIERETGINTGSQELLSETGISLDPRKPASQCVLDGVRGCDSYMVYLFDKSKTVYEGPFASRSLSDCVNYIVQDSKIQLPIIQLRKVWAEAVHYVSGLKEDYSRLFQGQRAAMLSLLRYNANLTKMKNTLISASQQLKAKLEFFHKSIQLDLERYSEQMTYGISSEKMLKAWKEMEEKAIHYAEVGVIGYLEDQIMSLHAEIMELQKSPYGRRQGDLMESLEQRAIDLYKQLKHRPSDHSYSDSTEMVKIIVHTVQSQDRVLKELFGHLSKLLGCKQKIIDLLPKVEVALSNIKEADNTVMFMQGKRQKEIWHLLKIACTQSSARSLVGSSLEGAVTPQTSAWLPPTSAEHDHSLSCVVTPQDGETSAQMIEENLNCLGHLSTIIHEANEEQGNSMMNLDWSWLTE
Test: Inhibition of full length human His-tagged IKK1 expressed in baculovirus expression system at 10 uM by Z'-LYTE assay
ATTRIBUTE MEASURED: inhibition
Returns: string containing the numeric result and its unit.

Cc1ccc2nc(NCCN)c3ncc(C)n3c2c1: 8%

Batch request: inhibition for each of the following compounds.
1. CNc1nccn2c(C)cnc12
2. CNc1nc2ccccc2n2ncc(Br)c12
3. CNc1nc2ccccc2n2c(C)cnc12

1: -1%; 2: 0%; 3: -3%

---

target: Inhibitor of nuclear factor kappa-B kinase subunit alpha (Homo sapiens) (UniProt O15111); test: Inhibition of full length human His-tagged IKK1 expressed in baculovirus expression system at 10 uM by Z'-LYTE assay
ATTRIBUTE MEASURED: inhibition (%)
One number for each entry, in %.

Nc1nccn2c(Br)cnc12: 7
CNc1nc2ccccc2n2cnc(Br)c12: -5
CNc1nc2cc(C)ccc2n2ncc(Br)c12: -6
CNc1nc2ccccc2n2c(Br)nc(Br)c12: -1

What does the data say about its inhibition? Entry: "CNc1nccn2c(-c3ccc(OC)c(OC)c3)cnc12"
-9

Origin of the recorded values: ChEMBL document CHEMBL4190291
